Molecular target: UniProtKB P35968
Sequence (P35968 whole entry): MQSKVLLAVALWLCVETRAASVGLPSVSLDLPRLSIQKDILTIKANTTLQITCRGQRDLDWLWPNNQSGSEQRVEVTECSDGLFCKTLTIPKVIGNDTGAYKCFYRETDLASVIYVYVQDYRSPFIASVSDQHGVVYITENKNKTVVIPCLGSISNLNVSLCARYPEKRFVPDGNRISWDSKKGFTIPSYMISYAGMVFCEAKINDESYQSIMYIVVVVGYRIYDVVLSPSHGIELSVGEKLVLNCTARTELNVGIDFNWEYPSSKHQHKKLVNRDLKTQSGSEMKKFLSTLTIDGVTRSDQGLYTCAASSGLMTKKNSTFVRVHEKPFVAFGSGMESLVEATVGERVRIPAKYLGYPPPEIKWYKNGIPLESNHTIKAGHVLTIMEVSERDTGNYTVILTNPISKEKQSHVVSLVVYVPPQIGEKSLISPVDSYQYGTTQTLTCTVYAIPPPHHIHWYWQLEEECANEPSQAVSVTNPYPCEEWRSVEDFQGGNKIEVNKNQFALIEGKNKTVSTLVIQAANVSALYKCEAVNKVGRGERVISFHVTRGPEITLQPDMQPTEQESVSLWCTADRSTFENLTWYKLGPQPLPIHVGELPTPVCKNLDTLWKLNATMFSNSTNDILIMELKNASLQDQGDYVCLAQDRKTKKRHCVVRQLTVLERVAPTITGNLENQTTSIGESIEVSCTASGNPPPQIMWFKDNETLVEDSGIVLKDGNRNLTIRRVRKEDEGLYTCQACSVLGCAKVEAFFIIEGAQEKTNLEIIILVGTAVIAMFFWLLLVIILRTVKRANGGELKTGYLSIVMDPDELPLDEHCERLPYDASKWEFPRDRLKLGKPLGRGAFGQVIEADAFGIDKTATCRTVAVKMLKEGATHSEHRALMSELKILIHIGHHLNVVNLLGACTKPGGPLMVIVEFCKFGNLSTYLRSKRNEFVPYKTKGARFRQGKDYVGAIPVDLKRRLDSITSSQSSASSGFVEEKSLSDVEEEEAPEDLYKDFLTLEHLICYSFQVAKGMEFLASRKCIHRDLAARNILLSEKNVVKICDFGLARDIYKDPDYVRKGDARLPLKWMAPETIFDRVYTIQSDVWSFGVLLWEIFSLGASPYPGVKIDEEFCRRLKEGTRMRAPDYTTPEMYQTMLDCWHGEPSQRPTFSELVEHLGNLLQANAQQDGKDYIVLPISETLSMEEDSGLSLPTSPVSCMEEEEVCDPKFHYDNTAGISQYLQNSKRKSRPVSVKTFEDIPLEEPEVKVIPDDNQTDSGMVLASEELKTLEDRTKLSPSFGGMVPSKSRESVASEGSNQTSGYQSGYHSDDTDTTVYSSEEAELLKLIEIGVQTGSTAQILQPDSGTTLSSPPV
QUANTITY_NAME: IC50

Give IC50 only, for COC(=O)Nc1ccc(-c2nc(N3CCOCC3)c3cnn(C4CCN(C(=O)OC)CC4)c3n2)cc1 , using UniProtKB P35968 data. > 50 µM

====

Biological target: Serine/threonine-protein kinase mTOR (Homo sapiens, UniProt P42345)
Test: Inhibition of flag-tagged truncated human mTOR (1360-2549) expressed in HEK293 cells by DELFIA assay
Type: cell-based
Assignment: determine reported IC50 for the given compounds.
Answer with a number only, understood to be in nM.

Give IC50 only, for COC(=O)N1CCC(n2ncc3c(N4CCOCC4)nc(-c4ccc(NC(=O)OCCO)cc4)nc32)CC1 , using Serine/threonine-protein kinase mTOR (Homo sapiens, UniProt P42345) data. 1

Give IC50 only, for O=C(Nc1ccncc1)Nc1ccc(-c2nc(N3CCOCC3)c3cnn(C4CCN(C(=O)c5cccnc5)CC4)c3n2)cc1 , using Serine/threonine-protein kinase mTOR (Homo sapiens, UniProt P42345) data. 0.83

Give IC50 only, for CCNC(=O)Nc1ccc(-c2nc(N3CCOCC3)c3cnn(C4CCN(C(=O)OC)CC4)c3n2)cc1 , using Serine/threonine-protein kinase mTOR (Homo sapiens, UniProt P42345) data. 0.32
